Reported Ret values for a set of compounds
organism: Rattus norvegicus; experiment: Open TG-GATES - Regimen: Daily Repeat; format: toxicity, organism-based, Sprague-Dawley; design: regimen Daily Repeat, gender Male, age 6 weeks; details: in vivo, po, 100 mg/kg, 72 h, tissue Blood, route gavage, dose level Low, time 3 day
The answer consists of two parts: a number and, after it, its unit.

[Q] Give its Ret value. Item: "O=C(OC[C@H]1O[C@@H](OC(=O)c2cc(O)c(O)c(OC(=O)c3cc(O)c(O)c(O)c3)c2)[C@H](OC(=O)c2cc(O)c(O)c(OC(=O)c3cc(O)c(O)c(O)c3)c2)[C@@H](OC(=O)c2cc(O)c(O)c(OC(=O)c3cc(O)c(O)c(O)c3)c2)[C@@H]1OC(=O)c1cc(O)c(O)c(OC(=O)c2cc(O)c(O)c(O)c2)c1)c1cc(O)c(O)c(OC(=O)c2cc(O)c(O)c(O)c2)c1"
[A] 8.8%

[Q] For the compound "Cc1nnc2n1-c1ccc(Cl)cc1C(c1ccccc1Cl)=NC2" , what Ret is on record?
[A] 6.6%
